Hey, just so you know, these numbers are from PubChem BioAssay (NCI).

system: SK-OV-3 ovarian; assay: NCI tumour cell line growth inhibition, 48 h; in the data active means GI50 below about 0.43 µM; inactive means the rest
Select the correct class. Options are 1 = active, 0 = inactive and nothing else.

Write down the call the test reported for this molecule. Item: CC(C)n1nc(-c2ccc3oc(N)nc3c2)c2c(N)ncnc21
1

Just curious, what result did CCCNC(=O)c1ccc(Cl)cc1Cl get here?
0

Which result was noted for this molecule in the test: c1cncc(C2Nc3cccc4cccc(c34)N2)c1
0

Recorded test call requested for CCCCC(=O)N/N=C/c1c(O)ccc2ccccc12
0

Tell me the recorded outcome of this test for C[CH2][Ge]([CH2]C)([CH2]C)[O]C(=O)CCC(=O)[O][Ge]([CH2]C)([CH2]C)[CH2]C .
0

Per the records of this test, what outcome belongs to C/C=C/[C@H]1O[C@@H]2C(=C[C@H]1O)C(=O)O[C@H]2C ?
0

Would you mind telling me which call this test gave NCCOc1ccccc1/C=C1\c2ccccc2-c2ccc([N+](=O)[O-])cc21 ?
0

Per the records of this test, what outcome belongs to CCC(=O)Nc1ccccc1C#C/C=C\C#Cc1ccccc1C(F)(F)F ?
0

Can you look up the reported call for CC(=O)C1=C(C)N(C)C2(O)C=CC(=O)C3=C(O)c4ccccc4C(=O)C312 (stereo not drawn) for me?
0

Which outcome was entered for the molecule Cc1cc(N2CCCC2)nc(NCc2cc(Nc3ccnc4cc(Cl)ccc34)ccc2F)n1 in this test?
0

Recorded call for CN(C)CC(C(=O)Cc1ccccc1)c1ccccc1 (stereo not drawn) ?
0

Could you check what this test reported for Cc1ccc(C2=Nc3c(N)ncnc3NC(c3ccc4c(c3)OCO4)C2)cc1 (stereo not drawn) ?
0

Tell me the recorded outcome of this test for COc1cc(N2CCN(C(C)C)CC2)ccc1Nc1nc(Nc2cccc(F)c2C(=O)O)c2cc[nH]c2n1 .
0
